# ASSAY PROCEDURE: Kidney PK of CMS/CMS-E2 and formed colistin/colistin B
# Format: in vivo, rats
# ASSAY CONTEXT: male, Sprague-Dawley, rat, kidney (cortex) / plasma, ip, 40 mg/kg CBA, Kidney/plasma ratio of Cmax, colistin/colistin B, rats; single i.p. CMS-E2 40 mg/kg CBA
Where a SMILES comes first, the peptide text is derived from it. Bridges are numbered along the chain shown (N, C = ends). [ ]: non-standard residue; d: D form. The star is where a group is joined. Heptanoyl(6-Me) = CC(C)CCCCC(=O)*; Dab = NCC[C@H](N)C(=O)O

COMPOUND	Kp
CC(C)CCCCC(=O)N[C@@H](CCN)C(=O)N[C@H](C(=O)N[C@@H](CCN)C(=O)N[C@H]1CCNC(=O)[C@H]([C@@H](C)O)NC(=O)[C@H](CCN)NC(=O)[C@H](CCN)NC(=O)[C@H](CC(C)C)NC(=O)[C@@H](CC(C)C)NC(=O)[C@H](CCN)NC1=O)[C@@H](C)O [colistin B] ({Heptanoyl(6-Me)}-[Dab]T[Dab][Dab][Dab][dL]L[Dab][Dab]T; lactam 4-C)	20.1
